assay: NCI Yeast Anticancer Drug Screen. Data for the cln2 rad14 strain (AID 165);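 also: 0% = growth equal to vehicle treated cultures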; settings: S. cerevisiae cln2 rad14 strain, at 5.0 µM (retest, dose inferred, filed as 0.5), stronger effect = higher value
The panel holds about 79,000 compounds, 15% with a hit somewhere; the sample as a whole holds those more often.
metric: growth inhibition (%)
Give bare numbers, in %.

// each listed compound needs a value for growth inhibition
1. CCCCCCCCCCCCNCC#N
2. CS(=O)(=O)OCCN(CCOS(C)(=O)=O)c1ccc(C=Nc2ccc(-c3cnc(-c4ccc(Cl)cc4)s3)cc2)c(Cl)c1
3. C=CCN1/C(=C/C=C\c2sc3ccccc3[n+]2CC=C)Sc2ccccc21
4. Nc1cn(C2OC(CC(c3ccccc3)(c3ccccc3)c3ccccc3)C(O)C2O)c(=O)[nH]c1=O (centres undefined)

0
-6
93
96

---

experiment: NCI Yeast Anticancer Drug Screen. Data for the sgs1 mgt1 strain (AID 161);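 also: 0% = growth of cultures given vehicle only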; settings: S. cerevisiae sgs1 mgt1 strain, at 50.0 µM
The panel holds about 79,000 compounds, 15% with a hit somewhere; the sample as a whole holds those more often. Active and inactive are the calls of the source. Cut-off read from the data, not from the text of the source: active = growth inhibition above about 70%; inactive = the rest.
I would appreciate it if you answered using one of these outcomes: 1 (active), -1 (inactive)

Look over these answered cases.
[[record]]
compound = "O=P(OCCCl)(OCCCl)C(Nc1cccc2ccccc12)c1ccccc1 (stereo unspecified)"
label_class = 1

[[record]]
compound = "N#CC(Nc1cccc(C(F)(F)F)c1)c1ccccc1C(F)(F)F (stereo unspecified)"
label_class = 1

[[record]]
compound = "O=NNc1ncccc1OCc1ccccc1"
label_class = -1

[[record]]
compound = "C1=C(c2ccccc2)SC=C(c2ccccc2)S1"
label_class = -1


Called result for `O=C(Oc1ccccc1)c1ccc2ccccc2c1O`
-1

Called result for `Clc1ccc(CN2COc3c(cc(Cl)c4cccnc34)C2)c(Cl)c1`
-1

Called result for COc1cccc2c1C(=O)c1c(O)c3c(c(O)c1C2=O)C[C@@](O)(C(O)CO)C[C@@H]3OC1CC(N(Cc2ccccc2)Cc2ccccc2)C(O)C(C)O1 (stereo partly specified)
-1

Called result for `O=C(O)CSc1cc2c3ccccc3sc2c2ccccc12`
1

Called result for `CCOC(=O)c1ccc2c(c1)Cc1cc([N+](=O)[O-])ccc1-2`
-1

---

I'd appreciate it if you could supply growth inhibition values for the items below.
experiment: NCI Yeast Anticancer Drug Screen. Data for the mlh1 rad18 strain (AID 175); details: S. cerevisiae mlh1 rad18 strain growth inhibition; at 50.0 µM (retest, dose inferred, filed as 5.0); stronger effect = higher value
This is part of a sample that, as a whole, favours compounds with a hit. Of some 79,000 tested, about 15% had one in any assay.
Numbers only, in %.

Consider the following illustrative entries.
[[record]]
compound = "COc1ccc(C(=O)C(C(c2ccccc2)N2CCc3ccccc3C2)N2CCc3ccccc3C2)cc1 (stereo not given)"
unit_name = "%"
reported_result = 6

[[record]]
compound = "c1ccc(-n2c3ccccc3c3ccccc32)cc1"
unit_name = "%"
reported_result = 11

[[record]]
compound = "COc1ccc(Cc2nncc3ccccc23)cc1OC"
unit_name = "%"
reported_result = 93

[[record]]
compound = "CCCCCCCCCCN1CCN(C(=O)OCC)CC1"
unit_name = "%"
reported_result = 91

[[record]]
compound = "COC(=O)C1(C)CCCC2(C)C3CC(=O)C(C(C)C)=CC3(O)CCC12 (stereo not given)"
unit_name = "%"
reported_result = 19


// each listed compound needs a value for growth inhibition
1. COC1CC(OC(=O)c2ccccc2)C2OC(c3ccccc3)OCC2O1 (stereo not given)
2. OC(CN1CCc2ccccc2C1)c1ccc2ccccc2c1 (stereo not given)
3. O=[N+]([O-])c1ccc2c(c1)/C(=C/c1ccc(O)cc1)c1ccccc1-2

[36, 82, 83]

// each listed compound needs a value for growth inhibition
1. O=C(O)/C=C/c1ccc2c(c1)CCCC2
2. [Pt].c1ccc([PH+](CC[PH+](CC[PH+](c2ccccc2)c2ccccc2)CC[PH+](c2ccccc2)c2ccccc2)c2ccccc2)cc1
3. C=CCc1ccc2c(C)cc[n+](C)c2c1O

87
97
99
